protocolText: In vitro stability in mouse serum (radio-TLC)
Assay type: in vitro ADME
testSettings: 37°C, 12 h incubation, percentage of parent tracer by radio-TLC, read-out: ^99mTc-NGR peptide remained intact
Where a SMILES comes first, the peptide text is derived from it. Bridges are numbered along the chain shown (N, C = ends).

{"molecule": "N=C(N)NCCC[C@@H]1NC(=O)CNC(=O)[C@H](CC(N)=O)NC(=O)[C@@H](NC(=O)CNC(=O)CNC(=O)[C@@H](N)Cc2ccc(O)cc2)CSSC[C@@H](C(=O)O)NC1=O [^99mTc-NGR, metal not drawn] (H-YGGCNGRC-OH; disulfide 4-8)", "remaining at 12 h": "~92%"}
